- test.system: hGYS1 enzyme (recombinant hGYS1/GN1 protein) (Homo sapiens (Human), UniProt P13807)
- Sequence (P13807 whole entry): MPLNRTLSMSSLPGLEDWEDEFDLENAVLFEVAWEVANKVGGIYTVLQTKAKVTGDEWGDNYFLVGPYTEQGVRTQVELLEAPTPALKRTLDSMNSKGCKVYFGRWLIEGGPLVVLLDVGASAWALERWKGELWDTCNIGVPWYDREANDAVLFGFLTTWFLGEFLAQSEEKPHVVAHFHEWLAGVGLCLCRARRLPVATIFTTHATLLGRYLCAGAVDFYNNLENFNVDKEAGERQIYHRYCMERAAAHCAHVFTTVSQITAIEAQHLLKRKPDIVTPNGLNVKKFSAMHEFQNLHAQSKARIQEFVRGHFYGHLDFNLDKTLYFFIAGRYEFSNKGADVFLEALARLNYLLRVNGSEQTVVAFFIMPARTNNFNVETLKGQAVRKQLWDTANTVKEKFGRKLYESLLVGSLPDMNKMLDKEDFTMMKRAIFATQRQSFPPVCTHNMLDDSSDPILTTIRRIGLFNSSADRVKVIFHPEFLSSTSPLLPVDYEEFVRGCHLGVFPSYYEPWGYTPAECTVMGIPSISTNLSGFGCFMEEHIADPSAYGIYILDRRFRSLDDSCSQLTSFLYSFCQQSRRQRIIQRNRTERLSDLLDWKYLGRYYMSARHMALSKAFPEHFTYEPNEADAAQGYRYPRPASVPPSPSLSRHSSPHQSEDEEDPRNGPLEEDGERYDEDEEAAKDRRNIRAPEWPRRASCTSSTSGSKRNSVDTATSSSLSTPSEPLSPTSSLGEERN
- Sequence (P46976 whole entry partner): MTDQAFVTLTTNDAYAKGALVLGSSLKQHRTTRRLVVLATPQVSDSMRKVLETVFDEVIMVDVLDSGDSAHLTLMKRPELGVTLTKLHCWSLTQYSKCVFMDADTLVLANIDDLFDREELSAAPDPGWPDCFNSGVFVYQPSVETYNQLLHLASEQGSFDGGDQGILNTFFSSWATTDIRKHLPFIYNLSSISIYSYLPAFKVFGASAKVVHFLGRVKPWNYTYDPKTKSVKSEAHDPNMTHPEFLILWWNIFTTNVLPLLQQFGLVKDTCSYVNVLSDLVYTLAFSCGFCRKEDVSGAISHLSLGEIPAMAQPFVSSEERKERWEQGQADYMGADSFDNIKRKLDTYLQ
- experimental.details: GYS1 coupled enzyme assay (PK/LDH)
- settings: hGYS1/GN1 50 nM, UDP-Glucose 0.8 mM, G6P 1 mM; geometric mean of at least 2 runs
Catalogue of log10(IC50) readings, one per entry.
Lab note - IC50 converted to log10 from values in nM.

[[record]]
molecule = "Cn1nc(CC(=O)N2C[C@H](F)C[C@H]2C(=O)N[C@@H](c2ccccc2)c2ccc(C3CC3)c(F)n2)[nH]c1=O [Compound 303]"
reported_property = "log10(IC50)"
readout_number = 1.56

[[record]]
molecule = "CC(C)c1ccc([C@@H](NC(=O)[C@@H]2C[C@@H](F)CN2C(=O)Cn2nncc2CN)c2ccccc2)cc1 [Compound 240]"
reported_property = "log10(IC50)"
readout_number = 1.78

[[record]]
molecule = "CCn1cc(NCC(=O)N2C[C@H](F)C[C@H]2C(=O)N[C@@H](c2ccccc2)c2ccc(C3CC3)c(F)c2)nn1 [Compound 469]"
reported_property = "log10(IC50)"
readout_number = 1.79

[[record]]
molecule = "CNC(=O)NCC(=O)N1C[C@H](F)C[C@H]1C(=O)N[C@@H](c1ccccc1)c1ccc(C2CC2)c(F)n1 [Compound 301]"
reported_property = "log10(IC50)"
readout_number = 1.66

[[record]]
molecule = "CN(C)C(=O)NCC(=O)N1C[C@H](F)C[C@H]1C(=O)N[C@@H](c1ccccc1)c1ccc(C2CC(F)(F)C2)c(F)c1 [Compound 547]"
reported_property = "log10(IC50)"
readout_number = 1.20


GET log10(IC50) | system: hGYS1 enzyme (recombinant hGYS1/GN1 protein) (Homo sapiens (Human), UniProt P13807) | item: CC(=O)N(C)CC(=O)N1C[C@H](F)C[C@H]1C(=O)N[C@@H](c1ccccc1)c1ccc(C(C)C)cc1 [Compound 142] 1.89

GET log10(IC50) | system: hGYS1 enzyme (recombinant hGYS1/GN1 protein) (Homo sapiens (Human), UniProt P13807) | item: Cc1cn(CC(=O)N2C[C@H](F)C[C@H]2C(=O)N[C@@H](c2ccccc2)c2ccc(C3(C)CC3)c(F)c2)c(=O)[nH]c1=O [Compound 556] 1.43

GET log10(IC50) | system: hGYS1 enzyme (recombinant hGYS1/GN1 protein) (Homo sapiens (Human), UniProt P13807) | item: CC(=O)NCc1nnc(CC(=O)N2C[C@H](F)C[C@H]2C(=O)N[C@@H](c2ccccc2)c2ccc(C(C)C)cc2)o1 [Compound 239] 1.83

GET log10(IC50) | system: hGYS1 enzyme (recombinant hGYS1/GN1 protein) (Homo sapiens (Human), UniProt P13807) | item: CC(=O)N1C[C@H](F)C[C@H]1C(=O)NC(c1cccc(-c2ccno2)c1)c1ccc(C(C)C)c(F)n1 (single isomer, unassigned) [Compound 698] 2.18

GET log10(IC50) | system: hGYS1 enzyme (recombinant hGYS1/GN1 protein) (Homo sapiens (Human), UniProt P13807) | item: CC(=O)N1C[C@H]2C[C@@]2(C(=O)N2C[C@H](F)C[C@H]2C(=O)N[C@@H](c2ccccc2)c2ccc(C(C)C)cc2)C1 [Compound 148] 2.54

GET log10(IC50) | system: hGYS1 enzyme (recombinant hGYS1/GN1 protein) (Homo sapiens (Human), UniProt P13807) | item: O=C(N[C@@H](c1ccccc1)c1ccc(C2CC2)c(F)n1)[C@@H]1C[C@@H](F)CN1C(=O)Cn1ncc(N2CC(F)(F)C2)n1 [Compound 318] 1.30

GET log10(IC50) | system: hGYS1 enzyme (recombinant hGYS1/GN1 protein) (Homo sapiens (Human), UniProt P13807) | item: CCn1cc(CC(=O)N2C[C@H](F)C[C@H]2C(=O)N[C@@H](c2ccccc2)c2ccc(C3CC(F)(F)C3)c(F)n2)ncc1=O [Compound 527] 0.85

GET log10(IC50) | system: hGYS1 enzyme (recombinant hGYS1/GN1 protein) (Homo sapiens (Human), UniProt P13807) | item: CC(C)c1ccc([C@@H](NC(=O)[C@@H]2C[C@@H](F)CN2C(=O)CNC(=O)N2CCN(CC3CC3)CC2)c2ccccc2)nc1 [Compound 282] 1.69

GET log10(IC50) | system: hGYS1 enzyme (recombinant hGYS1/GN1 protein) (Homo sapiens (Human), UniProt P13807) | item: Cn1cc(CC(=O)N2C[C@H](F)C[C@H]2C(=O)N[C@@H](c2ccccc2)c2ccc(C3(C)CC3)c(F)n2)c2ccccc21 [Compound 592] 1.00

GET log10(IC50) | system: hGYS1 enzyme (recombinant hGYS1/GN1 protein) (Homo sapiens (Human), UniProt P13807) | item: Cc1cn(CC(=O)N2C[C@H](F)C[C@H]2C(=O)N[C@@H](c2ccccc2)c2ccc(C(C)C)c(F)n2)c(=O)[nH]c1=O [Compound 388] 0.70

GET log10(IC50) | system: hGYS1 enzyme (recombinant hGYS1/GN1 protein) (Homo sapiens (Human), UniProt P13807) | item: C#CCCCCCC(=O)N1CCC[C@H]1C(=O)N[C@@H](c1ccccc1)c1ccc(C(C)C)cc1 [Compound 701] 2.65

GET log10(IC50) | system: hGYS1 enzyme (recombinant hGYS1/GN1 protein) (Homo sapiens (Human), UniProt P13807) | item: Cc1nnn(CC(=O)N2C[C@H](F)C[C@H]2C(=O)N[C@@H](c2ccccc2)c2ccc(C3CC3)c(F)c2)n1 [Compound 433] 1.96

---

- test.system: hGYS1 enzyme (recombinant hGYS1/GN1 protein) (Homo sapiens (Human), UniProt P13807)
- experimental.details: GYS1 coupled enzyme assay (PK/LDH)
- Format: biochemical
- settings: hGYS1/GN1 50 nM, UDP-Glucose 0.8 mM, G6P 1 mM; geometric mean of at least 2 runs
reported.property: IC50 (nM)
Write the number in nM without appending the unit.

[[record]]
compound = "CC(C)c1ccc([C@@H](NC(=O)[C@@H]2C[C@@H](F)CN2C(=O)C(C)n2cnnn2)c2ccccc2)cc1 (stereo partly drawn) [Compound 24]"
readout_number = 50

[[record]]
compound = "CC(C)c1ccc([C@@H](NC(=O)[C@@H]2C[C@@H](F)CN2C(=O)Cn2nccn2)c2ccccc2)cc1 [Compound 17]"
readout_number = 34


// next item, IC50 requested
Answer with the recorded IC50 for the compound listed here: Cc1cc(C(NC(=O)[C@@H]2C[C@@H](F)CN2C(=O)Cc2cnn[nH]2)c2ccccc2)ncc1C(C)C (single isomer, unassigned) [Compound 604] 176

---

- test.system: hGYS1 enzyme (recombinant hGYS1/GN1 protein) (Homo sapiens (Human))
- experimental.details: GYS1 coupled enzyme assay (PK/LDH)
- settings: hGYS1/GN1 50 nM, UDP-Glucose 0.8 mM, G6P 1 mM; geometric mean of at least 2 runs
pIC50: −log10 of the molar value.
Output criterion met for pIC50 not less than 7; output criterion not met otherwise.

Solved entries (count: 2):
[[record]]
compound = "Cc1nccc(NCC(=O)N2C[C@H](F)C[C@H]2C(=O)N[C@@H](c2ccccc2)c2ccc(C(C)C)c(F)n2)n1 [Compound 404]"
test_system = "hGYS1 enzyme (recombinant hGYS1/GN1 protein) (Homo sapiens (Human))"
category_label = "criterion met"

[[record]]
compound = "CN(C)c1cn(CC(=O)N2C[C@H](F)C[C@H]2C(=O)N[C@@H](c2ccccc2)c2ccc(C3CC3)c(F)n2)nn1 [Compound 299]"
test_system = "hGYS1 enzyme (recombinant hGYS1/GN1 protein) (Homo sapiens (Human))"
category_label = "criterion met"


Reported pIC50 at or above 7? Cc1cc(CC(=O)N2C[C@H](F)C[C@H]2C(=O)N[C@@H](c2ccccc2)c2ccc(C3CC(F)(F)C3)c(F)n2)c[nH]c1=O [Compound 522] criterion met

Reported pIC50 at or above 7? CC(C)c1ccc([C@@H](NC(=O)[C@@H]2C[C@@H](F)CN2C(=O)Cn2cccn2)c2ccccc2)cc1 (stereo in doubt) [Compound 221] criterion met

Reported pIC50 at or above 7? CC(=O)N1CCC(C(=O)N2C[C@H](F)C[C@H]2C(=O)N[C@@H](c2ccccc2)c2ccc(C(C)C)cc2)CC1 [Compound 144] criterion not met

Reported pIC50 at or above 7? CC(C)c1ccc([C@@H](NC(=O)[C@@H]2C[C@@H](F)CN2C(=O)Cc2cnccn2)c2ccccc2)cc1F [Compound 344] criterion met

Reported pIC50 at or above 7? CCn1cccc(CC(=O)N2C[C@H](F)C[C@H]2C(=O)N[C@@H](c2ccccc2)c2ccc(C3CC(F)(F)C3)c(F)n2)c1=O [Compound 526] criterion met

Reported pIC50 at or above 7? Cc1nc2ccccc2n1CC(=O)N1C[C@H](F)C[C@H]1C(=O)N[C@@H](c1ccccc1)c1ccc(C2CC2)c(F)c1 [Compound 464] criterion met

Reported pIC50 at or above 7? CC(C)c1ccc([C@@H](NC(=O)[C@@H]2C[C@@H](F)CN2C(=O)CS(=O)(=O)N2CCCC2)c2ccccc2)cc1 [Compound 129] criterion not met

Reported pIC50 at or above 7? COC1(CC(=O)N2C[C@H](F)C[C@H]2C(=O)N[C@@H](c2ccccc2)c2ccc(C(C)C)cc2)CN(C(C)=O)C1 [Compound 161] criterion not met

Reported pIC50 at or above 7? O=C(NC(c1ccccc1)c1ccc(C2CC2)cn1)[C@@H]1C[C@@H](F)CN1C(=O)Cc1cnn[nH]1 (single isomer, unassigned) [Compound 498] criterion not met

Reported pIC50 at or above 7? O=C(N[C@@H](c1ccccc1)c1ccc(C2CC2)c(F)c1)[C@@H]1C[C@@H](F)CN1C(=O)CCc1ncco1 [Compound 422] criterion not met

Reported pIC50 at or above 7? CC(C)c1ccc([C@@H](NC(=O)[C@@H]2C[C@@H](F)CN2C(=O)CCCc2cccnc2)c2ccccc2)cc1 [Compound 94] criterion not met

Reported pIC50 at or above 7? COC(=O)NCc1cccc([C@H](NC(=O)[C@@H]2C[C@@H](F)CN2C(=O)Cc2cnn[nH]2)c2ccc(C(C)C)c(F)n2)c1 [Compound 638] criterion not met

Reported pIC50 at or above 7? CC(C)c1ccc([C@@H](NC(=O)[C@@H]2C[C@@H](F)CN2C(=O)Cc2nn(C)c(=O)o2)c2ccccc2)nc1F [Compound 401] criterion met

Reported pIC50 at or above 7? CC(C)c1ccc([C@@H](NC(=O)[C@@H]2C[C@@H](F)CN2C(=O)Cc2nnc(CN)o2)c2ccccc2)cc1 [Compound 238] criterion met

Reported pIC50 at or above 7? CCn1c(=O)c(C)cn(CC(=O)N2C[C@H](F)C[C@H]2C(=O)N[C@@H](c2ccccc2)c2ccc(C(C)C)c(F)n2)c1=O [Compound 794] criterion met

Reported pIC50 at or above 7? CC1(c2ccc([C@@H](NC(=O)[C@@H]3C[C@@H](F)CN3C(=O)CN3CCNCC3=O)c3ccccc3)cc2F)CC1 [Compound 562] criterion not met
